target: PAF receptor (Oryctolagus cuniculus, UniProt G1TEI7); construct: Cell membrane fraction of rabbit platelets was prepared; from tissue; host or cells: rabbit platelets (cell membrane fraction); experiment: Binding test using [3H]-PAF (PAF receptor binding test); parameters: species or system rabbit
Sequence (G1TEI7 1-342): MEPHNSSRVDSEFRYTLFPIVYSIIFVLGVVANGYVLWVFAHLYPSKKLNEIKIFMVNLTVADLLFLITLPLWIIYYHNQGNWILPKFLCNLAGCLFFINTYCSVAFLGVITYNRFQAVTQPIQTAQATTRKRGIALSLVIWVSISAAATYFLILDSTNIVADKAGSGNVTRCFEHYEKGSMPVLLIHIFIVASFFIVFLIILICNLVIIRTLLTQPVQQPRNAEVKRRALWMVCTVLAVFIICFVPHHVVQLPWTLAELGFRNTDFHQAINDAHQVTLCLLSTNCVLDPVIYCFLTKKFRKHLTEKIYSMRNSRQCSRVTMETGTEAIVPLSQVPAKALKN
RECORDED METRIC: IC50 (nM)
Write down the numeric answer in nM and omit the unit.

// query Please indicate recorded IC50 of Cc1nnc2n1-c1sc(CCC(=O)N3CCOCC3)cc1C(c1ccccc1Cl)=NC2 [WEB2086, reference compound] measured with PAF receptor (Oryctolagus cuniculus, UniProt G1TEI7).
// result 110

====

Exercise: for every item that follows, state its recorded log10 of IC50.
target: rabbit platelets (Oryctolagus cuniculus, UniProt G1TEI7); test: in vitro platelet agglutination inhibition test (PAF-induced); type: cell-based; details: rabbit platelet-rich plasma, PAF final concentration 10 ng/ml, 37°C; read-out: PAF-Induced Platelet Aggregation IC50 (converted)
Sequence (G1TEI7 1-342): as above
Form field - Quantity: IC50; Unit: nM; Scale: log10

// query For Cc1nnc2c(=O)n(CCCN3CCC(=C(c4ccccc4)c4ccccc4)CC3)c3ccccc3n12 , write its log10 of IC50.
// result 3.61

// query For Cc1nnc2n1-c1ccccc1N(CCCN1CCC(C(=O)c3ccccc3)CC1)C2 , write its log10 of IC50.
// result 3.61

// query For Cc1nnc2n1-c1ccccc1N(CCCN1CCC(=C(c3ccc(F)cc3)c3ccc(F)cc3)CC1)C2 , write its log10 of IC50.
// result 2.15

// query For Cc1nnc2n1-c1ccc(Cl)cc1N(CCCN1CCC(c3c[nH]c4ccccc34)CC1)C2 , write its log10 of IC50.
// result 3.64

// query For Cc1nnc2n1-c1ccccc1N(CCCN1CCC(C(O)(c3ccc(F)cc3)c3ccc(F)cc3)CC1)C2C (centres unmarked) , write its log10 of IC50.
// result 3.01

// query For Cc1nnc2n1-c1ccccc1N(CCCN1CCC(C(O)(c3cccs3)c3cccs3)CC1)C2 , write its log10 of IC50.
// result 2.66

// query For Cc1nnc2n(CCCN3CCC(c4c[nH]c5ccccc45)CC3)c3cc(Cl)ccc3n12 , write its log10 of IC50.
// result 3.71

// query For Cc1nnc2n1-c1ccccc1N(CCCN1CCC(=C(c3ccccc3)c3ccc4ccccc4c3)CC1)C2 , write its log10 of IC50.
// result 2.78

Source: patent EP0536419B1
